// data source = patent US4572916A

# test summary: Solubility in water of isomaltulose
# Assay type: physicochemical
# test parameters: water; 30° C., H2O; read-out: solubility at 30° C., H2 O
experimental readout: solubility (mg/mL)
One number for each entry, in mg/mL.

Request: Given the compound OC[C@H]1O[C@H](OC[C@H]2OC(O)(CO)[C@@H](O)[C@@H]2O)[C@H](O)[C@@H](O)[C@@H]1O (stereo partly shown) , what is its reported solubility?
Response: 460

====

# test summary: Flowability: flow of 100 g tablet mix through a 3/8 inch orifice funnel
# Assay type: physicochemical
# test parameters: Example 7, ascorbic acid mix
experimental readout: Flowability, 100 g through 3/8" orifice, no agitation

[
  {
    "compound": "OC[C@H]1O[C@H](OC[C@H]2OC(O)(CO)[C@@H](O)[C@@H]2O)[C@H](O)[C@@H](O)[C@@H]1O (stereo partly shown)",
    "measured value": "43 s"
  },
  {
    "compound": "OC[C@H]1O[C@@H](O[C@H]2[C@H](O)[C@@H](O)C(O)O[C@@H]2CO)[C@H](O)[C@@H](O)[C@H]1O (stereo partly shown) [Lactose, reference compound]",
    "measured value": "Agitation required"
  },
  {
    "compound": "OC[C@H]1O[C@@](CO)(O[C@H]2O[C@H](CO)[C@@H](O)[C@H](O)[C@H]2O)[C@@H](O)[C@@H]1O",
    "measured value": "Agitation required"
  },
  {
    "compound": "O=C[C@H](O)[C@@H](O)[C@H](O)[C@H](O)CO",
    "measured value": "Agitation required"
  }
]
